# Assay info: Stability of the compound in solid state assessed as compound hydrolysis
# Type: physicochemical
# Settings: solid state; read-out: Drug degradation
Quantity: degraded (%)

>>> reported_value("O=C(Nc1cc(C(F)(F)F)cc(C(F)(F)F)c1)c1cc(Cl)ccc1OP(=O)([O-])[O-].[Na+].[Na+]")
1

---

# Assay info: Stability of the compound in pH 8.5 buffer assessed as compound hydrolysis at room temperature
# Type: physicochemical
# Settings: read-out: Drug degradation
Quantity: degraded (%)

>>> reported_value("O=C(Nc1cc(C(F)(F)F)cc(C(F)(F)F)c1)c1cc(Cl)ccc1OP(=O)([O-])O.[Na+]")
1

---

# Assay info: Stability of the compound in pH 9.5 buffer assessed as compound hydrolysis at room temperature
# Format: physicochemical
# Settings: read-out: Drug degradation
Quantity: degraded (%)

>>> reported_value("O=C(Nc1cc(C(F)(F)F)cc(C(F)(F)F)c1)c1cc(Cl)ccc1OP(=O)([O-])[O-].[Na+].[Na+]")
1

---

# Assay info: Stability of the compound in pH 8.5 buffer assessed as compound hydrolysis measured over 12 hrs
# Type: physicochemical
# Settings: read-out: Drug degradation
Quantity: degraded at 12 h

>>> reported_value("O=C(Nc1cc(C(F)(F)F)cc(C(F)(F)F)c1)c1cc(Cl)ccc1OP(=O)([O-])O.[Na+]")
"< 1%"

---

solubility reference
# Assay info: Solubility in water
# Type: physicochemical
Quantity: solubility

>>> reported_value("NCCO.NCCO.O=C(Nc1cc(C(F)(F)F)cc(C(F)(F)F)c1)c1cc(Cl)ccc1OP(=O)(O)O")
"10000 µg/mL"
>>> reported_value("O=C(Nc1cc(C(F)(F)F)cc(C(F)(F)F)c1)c1cc(Cl)ccc1OP(=O)([O-])[O-].[Na+].[Na+]")
"1000 to 10000 µg/mL"

---

# Assay info: Plasma concentration in mouse water toxicity model a at 0.76 mg/kg
# Assay type: organism-based
# Settings: in vivo
Quantity: Cp

>>> reported_value("O=C(Nc1cc(C(F)(F)F)cc(C(F)(F)F)c1)c1cc(Cl)ccc1O")
"0.03 to 0.06 g"

---

# Assay info: Drug elimination mouse plasma assessed as rate of drug elimination at 10 mg/kg, ip loading dose and 1 mg/ml at 8 ul/hr maintenance dose measured at 15 mins and 24 hrs post dose by LC-MS/MS analysis
# Type: ADME, organism-based
Quantity: k el

>>> reported_value("NCCO.NCCO.O=C(Nc1cc(C(F)(F)F)cc(C(F)(F)F)c1)c1cc(Cl)ccc1OP(=O)(O)O")
"0.000283 s⁻¹"
